# maps each entry to its growth inhibition
Test: NCI Yeast Anticancer Drug Screen. Data for the rad50 strain (AID 155);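 further: 0% = growth of vehicle-only cultures of the same strain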
Details: S. cerevisiae rad50 strain growth inhibition; at 50.0 µM; hits give high values
This is part of a sample that, as a whole, favours compounds with a hit. Of some 79,000 tested, about 15% had one in any assay.
Hi! Could you send only the number? It should be in %, unit omitted.

Solved entries (count: 5):
compound: O=C1NC(=S)S/C1=C\c1ccncc1
unitDescriptor: %
measValue: 12.4
//
compound: NCCCN=c1ccc2c3c1c(O)c1c(O)ccc(=O)c1c3[nH]n2CCNCCO
unitDescriptor: %
measValue: 89.1
//
compound: CCCNc1ncnc2c1ncn2C
unitDescriptor: %
measValue: 10.6
//
compound: CCc1ccc(N=Nc2c(F)c(F)c(N)c(F)c2F)cc1
unitDescriptor: %
measValue: 6.1
//
compound: O=C1C(Cl)N(c2ccc([N+](=O)[O-])cc2)C1c1c[nH]c2ccccc12 (configuration not stated)
unitDescriptor: %
measValue: -4.2

Inquiry: Given the compound NC(N)=NC(N)=Nc1ccccc1Br , what is its reported growth inhibition?
Reply text: -20.9

Inquiry: So what does the record say about growth inhibition for CC(C)(CCCOc1ccccc1)NC(=O)c1ccccc1 ?
Reply text: 17.2

Cited source: PubChem BioAssay (NCI)
